Test: The drug is tested on the gut metagenome community of T-01 with ENA study accession number: PRJEB31790 for biotransformation under microaerobic condition. The drug concentrations were measured over 7 timepoints collected between 0 and 12 hours of incubation by liquid-chromatography-coupled mass spectrometry (LC–MS)
Assay type: ADME
Parameters: dose 5 uM, timepoint 0, 0.75, 1.5, 3, 6, 9, 12 hours
Settings: 5 µM
Measured Parameter: Bacterial Biotransformation

Study these solved cases before continuing.
INSERT INTO results (compound, measured_parameter, value_measured) VALUES
  ('CNC(=C[N+](=O)[O-])NCCSCc1ccc(CN(C)C)o1 [RANITIDINE]', 'Bacterial Biotransformation', 'Compound NOT metabolized'),
  ('C[C@H]1C[C@@H]2[C@H]([C@@H](O)C[C@@]3(C)[C@H]2CC[C@]3(O)C(=O)CO)[C@@]2(C)C=CC(=O)C=C12 [METHYLPREDNISOLONE]', 'Bacterial Biotransformation', 'Compound metabolized'),
  ('Cn1cnc([N+](=O)[O-])c1Sc1ncnc2nc[nH]c12 [AZATHIOPRINE]', 'Bacterial Biotransformation', 'Compound NOT metabolized'),
  ('CCOC(=O)C1=C(COCCN)NC(C)=C(C(=O)OC)C1c1ccccc1Cl (configuration not stated) [AMLODIPINE]', 'Bacterial Biotransformation', 'Compound NOT metabolized');

Task: Quick one: Bacterial Biotransformation for C=CC[C@@H]1/C=C(\C)C[C@H](C)C[C@H](OC)[C@H]2O[C@@](O)(C(=O)C(=O)N3CCCC[C@H]3C(=O)O[C@H](/C(C)=C/[C@@H]3CC[C@@H](O)[C@H](OC)C3)[C@H](C)[C@@H](O)CC1=O)[C@H](C)C[C@@H]2OC.O [TACROLIMUS] ?
Result: Compound metabolized

Task: Quick one: Bacterial Biotransformation for C[C@]12C=CC(=O)C=C1CC[C@@H]1[C@@H]2[C@@H](O)C[C@@]2(C)[C@H]1CC[C@]2(O)C(=O)CO [PREDNISOLONE] ?
Result: Compound NOT metabolized

Task: Quick one: Bacterial Biotransformation for C[C@]12C=CC(=O)C=C1CC[C@@H]1[C@@H]2C(=O)C[C@@]2(C)[C@H]1CC[C@]2(O)C(=O)CO [PREDNISONE] ?
Result: Compound metabolized
